target_desc: Rap guanine nucleotide exchange factor 4 (Homo sapiens) (UniProt Q8WZA2)
Sequence (Q8WZA2 whole entry, looked up): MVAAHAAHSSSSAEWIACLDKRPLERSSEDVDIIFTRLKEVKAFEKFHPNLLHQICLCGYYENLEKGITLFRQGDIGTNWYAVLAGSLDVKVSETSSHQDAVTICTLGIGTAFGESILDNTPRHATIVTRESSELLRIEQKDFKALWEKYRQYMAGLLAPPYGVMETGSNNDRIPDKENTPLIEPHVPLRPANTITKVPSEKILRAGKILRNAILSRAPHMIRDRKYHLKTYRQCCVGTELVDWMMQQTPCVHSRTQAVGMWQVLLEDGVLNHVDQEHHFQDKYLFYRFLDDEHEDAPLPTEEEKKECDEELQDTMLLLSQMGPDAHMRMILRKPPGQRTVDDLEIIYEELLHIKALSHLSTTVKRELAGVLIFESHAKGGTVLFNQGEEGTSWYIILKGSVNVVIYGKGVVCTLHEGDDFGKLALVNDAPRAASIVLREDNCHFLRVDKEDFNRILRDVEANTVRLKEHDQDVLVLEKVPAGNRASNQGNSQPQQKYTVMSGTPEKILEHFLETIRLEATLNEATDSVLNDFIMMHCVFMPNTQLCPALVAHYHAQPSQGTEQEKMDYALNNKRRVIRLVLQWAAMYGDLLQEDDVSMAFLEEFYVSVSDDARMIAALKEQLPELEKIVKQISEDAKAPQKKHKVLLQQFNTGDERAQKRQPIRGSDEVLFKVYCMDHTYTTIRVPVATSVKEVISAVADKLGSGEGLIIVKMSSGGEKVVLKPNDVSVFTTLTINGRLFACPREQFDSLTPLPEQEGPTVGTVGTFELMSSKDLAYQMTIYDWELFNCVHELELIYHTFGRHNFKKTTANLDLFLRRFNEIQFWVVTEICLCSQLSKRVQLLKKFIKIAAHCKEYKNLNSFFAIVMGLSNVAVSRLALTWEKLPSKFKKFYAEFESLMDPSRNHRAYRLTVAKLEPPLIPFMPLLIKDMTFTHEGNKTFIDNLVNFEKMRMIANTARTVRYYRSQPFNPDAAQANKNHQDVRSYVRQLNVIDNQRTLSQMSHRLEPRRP
experiment_summary: Confirmatory qHTS for antagonist of cAMP-regulated guanine nucleotide exchange factor 4 (EPAC2) (AID 1645885); also: % is scaled to controls: 0 for no effect and ±100 for the full control effect; nearly all actives have a fitted effect of over 25% in size
conditions_used: EPAC2 Rap1B-BODIPY-GDP exchange fluorescence, biochemical; series mostly up to 12.7 µM
Records with an inconclusive call do not appear. Calls of active or inactive are those of the source. Calls follow the shape of the dose curve; as a rule, active = well fitted inhibition curve with a large enough effect; inconclusive = small, poorly fitted or top-dose-only effect; inactive = no such curve, though single readings can be large or run the other way.
A correct response names exactly one class from active, inactive

[Q] So what was the verdict on "O=C(NCc1ccc(OC(F)(F)F)cc1)c1cccc2c1C(=O)c1ccc(N3CCCC3)cc1S2(=O)=O" in this test?
[A] inactive

----------
experiment_summary: qHTS assay for small molecule agonists of retinoid X receptor alpha signaling (AID 588544)
conditions_used: HEK293T RXRa-UAS-bla, beta-lactamase reporter, 18 h; 530 nm emission
Results filed as inconclusive are left out.
Entries and their max response
The figure you give is taken to be in %; do not add the unit.

Solved entries (count: 2):
>>> measured_number("C[Si](C)(C)O[Si](C)(C)O[Si](C)(C)C")
-9.58
>>> measured_number("O=C1CCc2ccccc2O1")
-3.26

Consider the record given below.
The recorded max response for C=C(C)C1CC=C(C)C(O)C1 (stereo not drawn) is -1.36

----------
experiment_summary: qHTS profiling for inhibitors of Plasmodium falciparum proliferation (AID 504749);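 also: 0% = DMSO vehicle and full inhibition = artemisinin control; nearly all actives have a fitted effect of over 60% in size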
conditions_used: P. falciparum in erythrocytes, SYBR Green DNA, 72 h; at 28.7 µM (top of the series); parasite line A
Inconclusive results are not listed.
recorded_metric: activity, negative = inhibition (%)
The reply should be a number in %, with the unit left off.

Past entries and their recorded results:
>>> measured_number("CC(C)CN(C[C@@H](O)[C@H](Cc1ccccc1)NC(=O)O[C@H]1CCOC1)S(=O)(=O)c1ccc(N)cc1")
-4.85
>>> measured_number("C/C=C\\c1ccc(OC)cc1")
-0.333
>>> measured_number("CO/N=C(/C(=O)N[C@@H]1C(=O)N2C(C(=O)O)=CCS[C@H]12)c1csc(N)n1")
1.12
>>> measured_number("CC1(C)S[C@@H]2[C@H](NC(=O)COc3ccccc3)C(=O)N2[C@H]1C(=O)O")
4.88

The value of activity, negative = inhibition measured for the compound "O=NCc1ccc([N+](=O)[O-])o1" turned out to be -23.3

----------
target_desc: Rap guanine nucleotide exchange factor 4 (Homo sapiens) (UniProt Q8WZA2)
experiment_summary: Confirmatory qHTS for antagonist of cAMP-regulated guanine nucleotide exchange factor 4 (EPAC2) (AID 1645885); also: % is scaled to controls: 0 for no effect and ±100 for the full control effect; nearly all actives have a fitted effect of over 25% in size
conditions_used: EPAC2 Rap1B-BODIPY-GDP exchange fluorescence, biochemical; series mostly up to 12.7 µM
Records with an inconclusive call do not appear. The source made the active and inactive calls. Calls follow the shape of the dose curve; as a rule, active = well fitted inhibition curve with a large enough effect; inconclusive = small, poorly fitted or top-dose-only effect; inactive = no such curve, though single readings can be large or run the other way.
In this exercise, the only acceptable responses are class 1 (active), class 0 (inactive)

>>> category_label("N#C/C(=C\\c1ccccn1)c1nc2ccccc2s1")
"class 0"
>>> category_label("Cc1ccc(-c2csc(/C(C#N)=C(\\O)CCl)n2)cc1")
"class 0"
>>> category_label("Cc1ccc(OCc2nc3ccccc3n2CC(C)C)cc1")
"class 0"
>>> category_label("CC(C)C(=O)NC(c1ccccc1)c1cc([N+](=O)[O-])c2cccnc2c1O (configuration not stated)")
"class 0"
>>> category_label("CC1=NOC(=O)/C1=C\\c1ccc(-c2ccc(Br)cc2)o1")
"class 0"

[Q] What did the test return for "O=C(O)CCN1C(=O)/C(=C\c2cccc(OCC(=O)Nc3ccc(Cl)cc3)c2)SC1=S" ?
[A] class 0

[Q] Entry "COc1ccc(OC)c(CCNC(=O)c2ccc(CS(=O)(=O)c3ccc(Br)cc3)o2)c1" : call = ?
[A] class 0
